test system: NCI/ADR-RES ovarian; test: NCI-60 one-dose screen, 48 h (100 = growth as untreated, 0 = no growth, -100 = all killed); conditions: 10 µM unless noted
The panel holds about 83,000 compounds, 20% with a hit somewhere; the sample as a whole holds those more often.
Respond with YES for growth values of 40% and above, NO for values below.

C[C@]12CC[C@@H]3c4cc(OC(F)F)c(OS(N)(=O)=O)cc4CC[C@H]3[C@@H]1CC[C@@H]2OS(N)(=O)=O ... NO
Cc1cccc2c1S/C(=C/c1ccc([N+](=O)[O-])cc1)C2=O ... YES
COc1ccc(/C=C/c2c(C(=O)/C=C/c3ccc(Cl)cc3)c(C)nc3ccccc23)cc1 ... NO
C[N+]1=C(/C=C/c2ccc(O)c3ncccc23)C(C)(C)c2ccccc21 ... NO
Cc1nn(-c2ccccc2)c(-n2ccnc2)c1/C=N/Nc1nc(-c2ccc(Cl)c(Cl)c2)cs1 ... NO

Does the reported growth for Cc1nc2ccccc2c(/C=C/c2ccc(Cl)cc2)c1C(=O)/C=C/c1cccs1 fall at or above the 40% mark?
YES

Confirm if growth reported for the molecule COc1ccc2sc3c(NCCCNCCO)nc4ccccc4c3c(=O)c2c1 is 40% or above.
YES

Could you tell me if the measured growth of CCCCNc1nc(NN2C(=O)c3cccc4cccc(c34)C2=O)nc(-n2cnc3ccccc32)n1 reaches 40% or more?
YES

Quick check: does O=c1c2cc(F)ccc2sc2c(N3CCNCC3)nc3ccccc3c12 have growth greater than or equal to 40%?
NO

// inclusive: growth at least 40%? input: Nc1nn(C(=O)Nc2ccc(Cc3ccccc3)cc2)c2ccc(Cl)cc12
YES

For this molecule, is measured growth 40% or higher? CC([C@H]1CCC2C3CCC4C[C@@H](NC=O)CC[C@]4(C)C3CC[C@@]21C)N(C)C (some centres not stated)
NO

Does the reported growth for Cc1ccc(-c2nc3c(c(-c4ccccc4)nn3-c3ccccc3)c(-c3ccc(O)cc3)c2C#N)cc1 fall at or above the 40% mark?
YES

###

Test system: ACHN renal
Assay: NCI-60 one-dose screen, 48 h (100 = growth as untreated, 0 = no growth, -100 = all killed)
Details: 10 µM unless noted
Procedure: Growth inhibition of the ACHN human tumor cell line is measured as a screen for anti-cancer activity. Cells are grown in 96 well plates and exposed to the test compound for 48 hours. Compounds are tested at a single concentration, which is 10^-5 M for most compounds. The reported endpoint is percent growth (GI% or GIPRCNT), where numbers from 0 - 100% represent growth inhibition, and numbers from -100% - 0 represent cell death. For example, a value of 40 represents 60% growth inhibition. […]
About 83,000 compounds went through this panel and 20% of them were active in at least one assay; those are over-represented in the sample as a whole.
Could you label it Yes if measured growth is 30% or higher, and No otherwise?

Study these solved cases before continuing.
Cc1nc(S(=O)(=O)c2ccccc2)c(S(=O)(=O)Cc2ccc([N+](=O)[O-])cc2)o1 ... Yes
CC(C)c1cc(C(C)C)c(S(=O)(=O)Oc2ccc(NC(=O)c3ccc(Cl)cc3)cc2)c(C(C)C)c1 ... No
O=C(N/N=C/c1c(Cl)cccc1Cl)c1ccc(C(F)(F)F)nc1Nc1cccc(C(F)(F)F)c1 ... No
O=C(Cc1ccc(F)c(Cl)c1)Nc1cc(C2(C(F)(F)F)CC2)nn1Cc1ccccc1 ... Yes
COc1ccc(/C=C/c2c(C(=O)/C=C/c3ccc(C(F)(F)F)cc3)c(C)nc3ccccc23)cc1 ... No

Check if growth >= 30% (inclusive). Item: COc1cc(/C=C/C(=O)/C=C/c2cc(OC)c3c(c2OC)OCO3)c(OC)c2c1OCO2
No

Is growth at least 30%? Consider N#CC1=C(N)Oc2c(sc3c(Br)cccc23)C1c1ccc([N+](=O)[O-])cc1 (centres undefined)
No

Kindly determine if growth recorded for CCC(C)(c1cc(C(C)(C)C)c(O)c(C(C)(C)C)c1)c1cc(C(C)(C)C)c(O)c(C(C)(C)C)c1 is above or exactly 30%.
Yes

Does growth meet or surpass 30% for O=C1c2cccc3cccc(c23)C(=O)N1Nc1nc(NC2CCCCC2)nc(N2CCOCC2)n1 ?
Yes
